Subject Of Test: Metallo-beta-lactamase type 2 (Bacteria, UniProt C7C422)
Sequence (C7C422 whole entry, the tested form may be a part): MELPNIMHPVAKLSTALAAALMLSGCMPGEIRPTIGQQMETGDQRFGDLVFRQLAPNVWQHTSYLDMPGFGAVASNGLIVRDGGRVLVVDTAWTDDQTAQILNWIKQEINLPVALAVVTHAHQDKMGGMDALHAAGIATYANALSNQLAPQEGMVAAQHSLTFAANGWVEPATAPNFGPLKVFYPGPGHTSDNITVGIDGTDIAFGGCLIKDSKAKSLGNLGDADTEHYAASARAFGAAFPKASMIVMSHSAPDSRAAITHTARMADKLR
Experiment Description: Inhibition of N-terminal truncated NDM1 (1 to 49N residues) (unknown origin) extracted from Escherichia coli BL21(DE3) cells using FC5 as substrate preincubated for 10 mins followed by substrate addition and measured immediately by fluorescence based analysis
Measured IC50, listed per entry.
State the value, then name its unit.

Solved cases (5 shown):
Substance Smiles: Cc1ccc(-c2c(C(=O)O)[nH]c3c2CCc2ccccc2-3)c(F)c1
Endpoint Name: IC50
Experimental Result: 7.7 nM
//
Substance Smiles: COc1ccccc1-c1c(C(=O)O)[nH]c2c1CCc1ccccc1-2
Endpoint Name: IC50
Experimental Result: 188 nM
//
Substance Smiles: O=C(O)c1[nH]c2c(c1-c1cncc(Cl)c1)CCc1ccccc1-2
Endpoint Name: IC50
Experimental Result: 2.3 nM
//
Substance Smiles: O=C(O)c1[nH]c2c(c1-c1cccc(F)c1F)CCc1ccccc1-2
Endpoint Name: IC50
Experimental Result: 268 nM
//
Substance Smiles: Cc1cc(C(=O)O)[nH]c1-c1ccccc1
Endpoint Name: IC50
Experimental Result: 10600 nM

## Task Which IC50 is reported for this molecule? COc1cc(F)ccc1-c1c(C(=O)O)[nH]c2c1CCc1ccccc1-2
## Result 23.6 nM

## Task Which IC50 is reported for this molecule? O=C(O)c1[nH]c2c(c1-c1cccc(Cl)c1)CCc1ccccc1-2
## Result 2.5 nM

## Task Which IC50 is reported for this molecule? O=C(O)c1ccccn1
## Result 13700 nM

## Task Which IC50 is reported for this molecule? COc1ccc(F)cc1-c1c(C(=O)O)[nH]c2c1CCc1ccccc1-2
## Result 7.5 nM

## Task Which IC50 is reported for this molecule? O=C(O)c1[nH]c2c(c1-c1ccc(Cl)cc1)CCc1ccccc1-2
## Result 3.1 nM
